Reported Kd by item:
Experimental system: T1, recombinant human HER2 extracellular domain protein (human, UniProt P04626 23-652)
T1 construct: range 23-652; Range is printed for the immunogen/panning protein; also called ErbB2; recombinant HER2 protein
Procedure details: BLI, Protein A capture
Unit nM implied. Number only.

Consider the reported Kd for these binders:
Binder	Test readout	Number
2126-Hu-H36 (antibody, IgG1, V domains shown, IgG1/Cκ) VH: QVQLVQSGSELKKPGASVKVSCKASGYTFTDYSMHWVRQAPGQGLEWMGWINTETGEPTYADDFKGRFTFSLDTSVSTAYLQISSLKAEDTAVYFCVRVGRYDYAMDYWGQGTTVTVSS VL: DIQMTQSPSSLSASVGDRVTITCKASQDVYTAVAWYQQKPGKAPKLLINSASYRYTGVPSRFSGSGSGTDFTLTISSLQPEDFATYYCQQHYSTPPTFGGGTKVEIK	Kd	5.3
2126-Hu-L19 (antibody, IgG1, V domains shown, IgG1/Cκ) VH: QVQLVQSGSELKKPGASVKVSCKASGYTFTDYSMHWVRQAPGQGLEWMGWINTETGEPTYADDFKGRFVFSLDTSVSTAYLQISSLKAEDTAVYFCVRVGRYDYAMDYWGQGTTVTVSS VL: DIQMTQSPSSLSASVGDRVTITCKASQDVYTAVAWYQQKPGKAPKLLINSASYRYTGVPSRFSGSGSGTDFTLTISSLQPEDFATYYCQQAYSTPPTFGGGTKVEIK	Kd	8.07
2126-Hu-H42 (antibody, IgG1, V domains shown, IgG1/Cκ) VH: QVQLVQSGSELKKPGASVKVSCKASGYTFTDYSMHWVRQAPGQGLEWMGWINTETGEPTYADDFKGRFVFSLDTSKSTAYLQISSLKAEDTAVYFCVRVGRYDYAMDYWGQGTTVTVSS VL: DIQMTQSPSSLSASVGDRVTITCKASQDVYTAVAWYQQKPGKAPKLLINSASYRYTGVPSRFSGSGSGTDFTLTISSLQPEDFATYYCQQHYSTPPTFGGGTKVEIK	Kd	5.11

Fill in Kd for record 2126-Hu-H28 (antibody, IgG1, V domains shown, IgG1/Cκ) VH: QVQLVQSGSELKKPGASVKVSCKASGYTFTDYSMHWVRQAPGQGLEWMGWINTYTGEPTYADDFKGRFVFSLDTSVSTAYLQISSLKAEDTAVYFCVRVGRYDYAMDYWGQGTTVTVSS VL: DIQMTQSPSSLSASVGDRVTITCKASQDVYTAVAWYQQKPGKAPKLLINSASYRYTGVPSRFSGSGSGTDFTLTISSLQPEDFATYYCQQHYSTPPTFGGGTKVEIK
3.08

State, in one line, measured Kd of 2126-Hu-L05 (antibody, IgG1, V domains shown, IgG1/Cκ) VH: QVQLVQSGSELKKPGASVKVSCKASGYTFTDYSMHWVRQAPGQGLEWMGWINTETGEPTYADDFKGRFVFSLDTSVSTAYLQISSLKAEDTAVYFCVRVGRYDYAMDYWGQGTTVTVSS VL: DIQMTQSPSSLSASVGDRVTITCKASQDVYTAVAWYQQKPGKAPKLLIYSASYRYTGVPSRFSGSGSGTDFTLTISSLQPEDFATYYCQQHYSTPPTFGGGTKVEIK
13.4
